# Test system: DeltatarO mutant
# method.summary: S. aureus survival, RN4220 and DeltatarO strains – OD600, teichoic acid synthesis inhibitors, primary screen (AID 463173)
# experimental.context: S. aureus RN4220 wild type/DeltatarO growth, OD600, 18 h, hits give low values, screened at 18.75 µg/mL (by protocol)
The campaign covered roughly 52,000 compounds. About 4,300 (8.3%) were called active. Many of the other results were omitted from the sample, so actives are more common in it than they were.
metric: survival (%)

compound=COc1ccc2oc(=O)c(C(=O)N3CCC(C(N)=O)CC3)cc2c1 metric=survival unit_abbreviation=% quantitative_result=79
compound="Cn1c(C(=O)N2CCCC(C(=O)N3CCN(c4ccccc4)CC3)C2)cc2sccc21 (stereo not given)" metric=survival unit_abbreviation=% quantitative_result=89
compound=Cc1ccc(C)c(N2CCN(S(=O)(=O)c3ccc4[nH]c5c(c4c3)CCCC5)CC2)c1 metric=survival unit_abbreviation=% quantitative_result=-2
compound=O=c1cc(CSc2n[nH]c(-c3ccccc3)n2)[nH]c2ccccc12 metric=survival unit_abbreviation=% quantitative_result=129
compound=CSc1nc2c(sc3ccccc32)c(=O)n1Cc1ccc(C)cc1 metric=survival unit_abbreviation=% quantitative_result=96
compound=Cc1cc(C)cc(NC(=O)CN2C(=O)c3ccccc3Sc3ccc(C(=O)N4CCOCC4)cc32)c1 metric=survival unit_abbreviation=% quantitative_result=89
compound=COc1ccc2oc(=O)c(C(=O)N3CCN(c4cc(Cl)ccc4Cl)CC3)cc2c1 metric=survival unit_abbreviation=% quantitative_result=48
compound=Cc1ccc(-c2nc3sc(CCNC(=O)c4ccc(Br)o4)c(C)n3n2)cc1 metric=survival unit_abbreviation=% quantitative_result=84
compound="O=S1(=O)CCC(NNC(=S)Nc2ccccc2)C1 (stereo not given)" metric=survival unit_abbreviation=% quantitative_result=100
compound=Cn1c(=O)cc(SCC(=O)NCc2ccc(F)cc2)c2ccc(Cl)cc21 metric=survival unit_abbreviation=% quantitative_result=91

---

# System: DeltatarO mutant
# method.summary: S. aureus survival, RN4220 and DeltatarO strains – OD600, teichoic acid synthesis inhibitors, primary screen (AID 463173)
# experimental.context: S. aureus RN4220 wild type/DeltatarO growth, OD600, 18 h, hits give low values, screened at 18.75 µg/mL (by protocol)
Hit rate of the full screen: of about 52,000 compounds, about 4,300 (8.3%) were called active. This is one part of a sample in which actives are shown more often than they occur.
Catalogue of survival values
metric: survival (%)

molecule="CCCOc1ccc(N2CC(C(=O)Nc3cccc(Cl)c3Cl)CC2=O)cc1 (configuration not stated)" quantitative_result=145
molecule=Clc1ccccc1Cn1c(-c2cccs2)nc2ccccc21 quantitative_result=11
molecule="CCCCOc1cccc(C(=O)N(Cc2ccc(Cl)cc2)C2CCS(=O)(=O)C2)c1 (configuration not stated)" quantitative_result=54
molecule=CSc1ncc(C(=O)Nc2ccccc2C(=O)c2ccccc2)c(C)n1 quantitative_result=64
molecule=O=C(CSc1nnc(-c2cccs2)o1)Oc1ccccc1Cl quantitative_result=81
molecule=OCc1nc2ccccc2n1Cc1c(F)cccc1Cl quantitative_result=99
molecule="COc1ccc(C(=O)N(Cc2ccc(C(C)C)cc2)C2CCS(=O)(=O)C2)cc1 (configuration not stated)" quantitative_result=62
molecule="CCOC(=O)c1c(NC(=O)CCCOc2ccccc2C)sc2c1CCC(C)C2 (configuration not stated)" quantitative_result=16
molecule="CCOc1cccc(C(=O)N(Cc2ccc(CC)cc2)C2CCS(=O)(=O)C2)c1 (configuration not stated)" quantitative_result=149
molecule="COc1cc(CN(C(=O)c2ccc(C)cc2)C2CCS(=O)(=O)C2)cc(OC)c1OC (configuration not stated)" quantitative_result=59
molecule="CCC(=O)N1CCc2cc(Br)cc(S(=O)(=O)CCC(=O)N3CCN(c4cccc(C)c4)C(C)C3)c21 (configuration not stated)" quantitative_result=65
molecule=CCCC(=O)NCCc1nc2ccccc2n1Cc1c(F)cccc1Cl quantitative_result=69
molecule=Cc1ccc(Cn2c(C)c3cnn(CC(=O)N4CCN(c5ccc(F)cc5)CC4)c(=O)c3c2C)cc1 quantitative_result=71
molecule=Cc1ccc(Cl)c2sc(NC(=O)c3ccc(S(=O)(=O)N4CCCC4)cc3)nc12 quantitative_result=63
molecule="Cc1cc(C)nc(-n2nc(C)c3c2N(C)C(=O)CC3c2ccc(Cl)cc2)n1 (configuration not stated)" quantitative_result=73
molecule=Cc1ccccc1Cn1c(-c2cccs2)nc2ccccc21 quantitative_result=19
molecule=COc1ccc(-c2nc3sc(CCNC(=O)c4ccc(Br)o4)c(C)n3n2)cc1 quantitative_result=92
molecule="COc1cc(CN(C(=O)c2ccc(Cl)cc2)C2CCS(=O)(=O)C2)cc(OC)c1OC (configuration not stated)" quantitative_result=69
molecule=Cc1ccccc1Cn1cnc2ccccc21 quantitative_result=77
molecule=O=C(NCc1ccccc1Cl)c1cnc2sc(N3CCOCC3)nn2c1=O quantitative_result=71
molecule=Cc1cc(C)c2sc(NC(=O)c3ccc(S(=O)(=O)N4CCCC4)cc3)nc2c1 quantitative_result=37
molecule=CCOc1cccc2sc(NC(=O)c3ccc(S(=O)(=O)N4CCCc5ccccc54)cc3)nc12 quantitative_result=74
